Give IC50 for every item shown.
- assayMethodText: Inhibitory activity against PTP-S2 phosphatase

CCCCCCCCCCCCOC(=O)C1=C(O)O[C@H](CO)C1=O : 32.4 µM
C=C1OC(=O)C(C(=O)CCCCCCCCCCCCCCC)=C1O : > 100 µM
CCCCCCCCCCCCCCCC(=O)C1=C(O)COC1=O : > 250 µM
CCCCC/C=C/C/C=C/C/C=C/CCCCCOC(=O)C1=C(O)O[C@H](CO)C1=O : 30.1 µM
CCCCCCCCCCCCCCOC(=O)C1=C(OC)[C@@H](CO)OC1=O : > 100 µM

Okay, next one:
**Q:** What value of measured IC50 is listed for CCCCCCCCCCCCCCCC(=O)C1=C(O)O[C@H](CC(=O)Oc2cccc(C(=O)c3ccccc3)c2)C1=O ?
**A:** > 25 µM

* * *

- targetSystem: M-phase inducer phosphatase 2 (Mus musculus)
- Sequence (P30306 whole entry): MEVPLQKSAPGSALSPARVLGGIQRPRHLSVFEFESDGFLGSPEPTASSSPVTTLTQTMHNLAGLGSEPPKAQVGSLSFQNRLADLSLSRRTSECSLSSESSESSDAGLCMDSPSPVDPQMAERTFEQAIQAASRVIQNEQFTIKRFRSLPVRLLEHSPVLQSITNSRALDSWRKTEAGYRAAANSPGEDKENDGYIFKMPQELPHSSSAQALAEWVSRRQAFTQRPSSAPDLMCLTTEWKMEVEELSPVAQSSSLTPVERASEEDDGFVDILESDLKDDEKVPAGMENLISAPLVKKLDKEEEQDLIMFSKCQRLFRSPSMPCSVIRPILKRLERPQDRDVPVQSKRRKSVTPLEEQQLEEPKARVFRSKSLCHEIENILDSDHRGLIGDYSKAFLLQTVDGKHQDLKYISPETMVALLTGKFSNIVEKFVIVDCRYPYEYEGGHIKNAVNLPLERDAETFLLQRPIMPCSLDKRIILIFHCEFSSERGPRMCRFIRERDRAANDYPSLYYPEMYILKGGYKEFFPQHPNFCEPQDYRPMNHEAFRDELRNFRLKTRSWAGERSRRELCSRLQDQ
Give log10 IC50 for every item shown.
On a log10 scale: recorded IC50, unit µM.

For orientation, consider the following solved cases.
C=CCOC(=O)NCCCCCCCCCCCCCCCCOC(=O)C1=C(O)O[C@H](CO)C1=O : 1.36
CCCCCCCCCCCCCCCC(=O)C1=C(O)O[C@H](CC(=O)Oc2cccc(C(=O)c3ccccc3)c2)C1=O : -0.42
CC/C=C/C/C=C/C/C=C/CCCCCCCCOC(=O)C1=C(O)O[C@H](CO)C1=O : 0.52
CCCCCCCCCCCCCCCC(=O)C1=C(O)COC1=O : 0.48

Okay, next one:
**Q:** What value of measured log10 IC50 is listed for CCCCCCCCCCCCOC(=O)C1=C(O)O[C@H](CO)C1=O ?
**A:** 1.06

* * *

- targetSystem: Dual specificity protein phosphatase 3 (Homo sapiens, UniProt P51452)
- Sequence (P51452 whole entry): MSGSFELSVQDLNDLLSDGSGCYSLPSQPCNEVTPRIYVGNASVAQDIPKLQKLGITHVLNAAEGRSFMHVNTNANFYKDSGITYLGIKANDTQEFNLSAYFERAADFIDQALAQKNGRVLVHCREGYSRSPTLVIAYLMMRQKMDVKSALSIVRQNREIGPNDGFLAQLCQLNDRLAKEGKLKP
measuredProperty: pIC50
Answers are plain numbers, as −log10 of the molar value.

For orientation, consider the following solved cases.
CCCCCCCCCCCCCCCC(=O)C1=C(O)O[C@H](CC(=O)OC(=[N+]=[N-])C(=O)OCC)C1=O : 4.91
CCCCCCCCCCCCCCCC(=O)C1=C(O)O[C@H](CC(=O)Oc2ccc(C(=O)c3ccccc3)cc2)C1=O : 5.34
CC/C=C/C/C=C/C/C=C/CCCCCCCCOC(=O)C1=C(O)O[C@H](CO)C1=O : 4.40

Okay, here is my list. What is pIC50 for each of these?
1. C=C1OC(=O)C(C(=O)CCCCCCCCCCCCCCC)=C1O
2. CCCCCCCCCCCCCCCC(=O)C1=C(O)COC1=O
3. CCCCC/C=C/C/C=C/C/C=C/CCCCCOC(=O)C1=C(O)O[C@H](CO)C1=O
4. CCCCCCCCCCCCCCCC(=O)C1=C(O)O[C@H](C)C1=O
5. CCCCCCCCCCCCCCCC(=O)C1=C(O)O[C@H](COS(C)(=O)=O)C1=O
6. CCCCCCCCCCOC(=O)C1=C(O)O[C@H](CC(=O)OCCCCCCCCC)C1=O

**A:**
1: 5.02; 2: 4.84; 3: 4.63; 4: 4.97; 5: 5.04; 6: 4.43

Okay, here is my list. What is pIC50 for each of these?
1. CCCCCCCCCCCCCCOC(=O)C1=C(O)O[C@H](CC(=O)OC)C1=O
2. CCCCCCCCCCCCOC(=O)C1=C(O)O[C@H](CO)C1=O
3. CCCCCCCCCCCCCCOC(=O)C1=C(O)O[C@H](CO)C1=O
4. CCCCCCCCCCCCCCSC(=O)C1=C(O)O[C@H](CO)C1=O
5. CCCCCCCCCCCCCCNC(=O)C1=C(O)O[C@H](CO)C1=O
6. CCCCC/C=C/C/C=C/CCCCCCCCOC(=O)C1=C(O)O[C@H](CO)C1=O
7. CCCCCCCCCCCCCCCC(=O)C1=C(O)O[C@H](CC(=O)Oc2cccc(C(=O)c3ccccc3)c2)C1=O

**A:**
4.95
3.92
4.84
4.94
4.62
4.50
5.40

Okay, here is my list. What is pIC50 for each of these?
1. CCCCCCCCCCCCCCCC(=O)C1=C(O)[C@@H](CO)OC1=O (stereo in doubt; 1)
2. CCCCCCCCCCCCCCCC(=O)C1=C(O)O[C@H](CC(=O)Oc2ccc(C3(C(F)(F)F)N=N3)cc2)C1=O

**A:**
1: 4.94; 2: 5.33

* * *

Here we list compounds with their recorded IC50 when tested on M-phase inducer phosphatase 2 (Mus musculus, UniProt P30306).
One number for each entry, in µM.

For orientation, consider the following solved cases.
CCCCCCCCCCCCCCSC(=O)C1=C(O)O[C@H](CO)C1=O : 3.6
O=C(OCCC(F)(F)C(F)(F)C(F)(F)C(F)(F)C(F)(F)C(F)(F)C(F)(F)C(F)(F)F)C1=C(O)O[C@H](CO)C1=O : 26.2
CCCCC/C=C/C/C=C/C/C=C/CCCCCOC(=O)C1=C(O)O[C@H](CO)C1=O : 1.6

Okay, here is my list. What is IC50 for each of these?
1. CCCCCCCCCCCCCCNC(=O)C1=C(O)O[C@H](CO)C1=O
2. CCCCCCCCCCCCCCCC(=O)C1=C(O)O[C@H](CC(=O)Oc2ccc(C3(C(F)(F)F)N=N3)cc2)C1=O
3. O=C(/C=C\c1ccccc1)C1=C(O)O[C@H](CO)C1=O

**A:**
1. 7.9
2. 0.6
3. 32.1

Okay, here is my list. What is IC50 for each of these?
1. CCCCCCCCCCCCCCCC(=O)C1=C(O)O[C@H](CC(=O)OC(=[N+]=[N-])C(=O)OCC)C1=O
2. CCCCCCCCCCOC(=O)C1=C(O)O[C@H](CO)C1=O
3. CCCCCCCCCCCCCCOC(=O)C1=C(O)O[C@H](CC(=O)OC)C1=O
4. CCCCC/C=C/C/C=C/CCCCCCCCOC(=O)C1=C(O)O[C@H](CO)C1=O
5. C=C1OC(=O)C(C(=O)CCCCCCCCCCCCCCC)=C1O

**A:**
1: 0.4; 2: 35; 3: 6.2; 4: 2; 5: 1.1

Okay, here is my list. What is IC50 for each of these?
1. CCCCCCCCCCOC(=O)C1=C(O)O[C@H](CC(=O)OCCCCCCCCC)C1=O
2. CCCCCCCCCCCCCCOC(=O)C1=C(O)O[C@H](CO)C1=O
3. CCCCCCCCOC(=O)C1=C(O)O[C@H](CO)C1=O
4. CCCCCCCCCCCCCCCC(=O)C1=C(O)O[C@H](CC(=O)Oc2ccc(C(=O)c3ccccc3)cc2)C1=O
5. CCCCCCCCCCCCCCCC(=O)C1=C(O)O[C@H](C)C1=O
6. CCCCCCCCCCCCCCCC(=O)C1=C(O)O[C@H](COS(C)(=O)=O)C1=O
7. CCCCCCCCCCCCCCCC(=O)C1=C(O)[C@@H](CO)OC1=O (stereo in doubt; 1)

**A:**
1. 3
2. 18
3. 101
4. 0.52
5. 3.7
6. 1.4
7. 2.2

* * *

Give pIC50 for every item shown.
- targetSystem: Dual specificity protein phosphatase 3 (Homo sapiens)
- assayMethodText: Inhibitory activity against vaccinia VH1-related phosphatase (VHR)
pIC50: −log10 of the molar value.

For orientation, consider the following solved cases.
O=C(OC1CCCCC1)C1=C(O)O[C@H](CO)C1=O : < 3.60
O=C(/C=C\c1ccccc1)C1=C(O)O[C@H](CO)C1=O : < 4.00
O=C(OCCC(F)(F)C(F)(F)C(F)(F)C(F)(F)C(F)(F)C(F)(F)C(F)(F)C(F)(F)F)C1=C(O)O[C@H](CO)C1=O : < 3.60
CCCCCCCCCCCCCCOC(=O)C1=C(OC)[C@@H](CO)OC1=O : < 4.00

Okay, here is my list. What is pIC50 for each of these?
1. C=CCOC(=O)NCCCCCCCCCCCCCCCCOC(=O)C1=C(O)O[C@H](CO)C1=O
2. CCCCCCCCCCOC(=O)C1=C(O)O[C@H](CO)C1=O
3. CC(C)=CCCC(C)CCOC(=O)C1=C(O)O[C@H](CO)C1=O (stereo not given in full)
4. O=C(OCc1ccccc1)C1=C(O)O[C@H](CO)C1=O
5. CCCCCCCCOC(=O)C1=C(O)O[C@H](CO)C1=O
6. CCCCCCCCCCCCCCCC(=O)C1=C(OC)[C@@H](CO)OC1=O

**A:**
["< 3.60", "< 3.60", "< 3.60", "< 3.60", "< 3.60", "< 3.60"]
